system-tested: His-Tagged hOGA (human O-GlcNAcase) (Homo sapiens (Human), UniProt O60502)
Sequence (O60502 whole entry): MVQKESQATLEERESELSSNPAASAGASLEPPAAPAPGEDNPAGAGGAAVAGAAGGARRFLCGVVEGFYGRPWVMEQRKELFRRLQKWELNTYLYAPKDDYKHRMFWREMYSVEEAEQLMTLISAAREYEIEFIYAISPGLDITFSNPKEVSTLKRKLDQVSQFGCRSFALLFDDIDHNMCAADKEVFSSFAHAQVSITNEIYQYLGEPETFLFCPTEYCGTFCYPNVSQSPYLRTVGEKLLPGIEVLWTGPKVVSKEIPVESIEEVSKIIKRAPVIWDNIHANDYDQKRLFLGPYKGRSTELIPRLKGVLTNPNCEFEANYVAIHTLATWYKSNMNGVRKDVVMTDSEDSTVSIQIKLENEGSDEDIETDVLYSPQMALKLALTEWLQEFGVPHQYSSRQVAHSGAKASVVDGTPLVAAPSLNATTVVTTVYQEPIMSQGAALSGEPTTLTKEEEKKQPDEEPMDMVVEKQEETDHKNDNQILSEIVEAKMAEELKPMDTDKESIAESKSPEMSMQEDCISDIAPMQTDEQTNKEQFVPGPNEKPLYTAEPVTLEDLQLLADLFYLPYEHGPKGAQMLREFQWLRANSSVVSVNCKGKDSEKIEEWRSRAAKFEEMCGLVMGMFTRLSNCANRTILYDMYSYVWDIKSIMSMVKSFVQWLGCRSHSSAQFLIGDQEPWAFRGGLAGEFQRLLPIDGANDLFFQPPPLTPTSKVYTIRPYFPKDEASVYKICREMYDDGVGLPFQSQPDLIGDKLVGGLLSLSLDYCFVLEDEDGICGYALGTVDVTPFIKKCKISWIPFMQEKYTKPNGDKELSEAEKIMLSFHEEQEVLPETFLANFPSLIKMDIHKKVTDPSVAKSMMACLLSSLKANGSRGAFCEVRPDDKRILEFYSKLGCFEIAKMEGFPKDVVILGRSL
run-description: Human O-GlcNAcase enzyme inhibition assay (Example B01)
Assay type: biochemical
condition-summary: OGA enzyme inhibition assay; activity range classes defined in μM; read-out: OGA IC50
Below, each entry is listed with its recorded IC50.

compound: C[C@@H](c1ccc2c(c1)OCO2)N1CCN(c2nc3c(s2)CN(S(C)(=O)=O)CC3)CC1 [Example 193]
system-tested: His-Tagged hOGA (human O-GlcNAcase) (Homo sapiens (Human), UniProt O60502)
IC50: < 0.05 µM

Can you look up the measured IC50 of COc1nc(N2CCN(C(C)c3ccc4c(c3)OCCO4)CC2)ccc1Br (racemic) [Example 199] for me?
0.05 to 0.2 µM

Can you look up the measured IC50 of CC(c1ccc2c(c1)OCO2)N1CCN(c2nc(C(C)(C)C)cs2)CC1 (racemic) [Example 16] for me?
1 to 10 µM

Can you look up the measured IC50 of Cc1cccc(N2CCN(C(C)c3ccc4c(c3)OCO4)CC2)n1 (racemic) [Example 21] for me?
0.2 to 1 µM

Can you look up the measured IC50 of COc1cccc(N2CCN(C(C)c3ccc4c(c3)OCCO4)CC2)n1 (racemic) [Example 200] for me?
0.05 to 0.2 µM

Can you look up the measured IC50 of CC(c1ccc2c(c1)OCO2)N1CCN(c2nc(C(=O)N(C)C)cs2)CC1 (racemic) [Example 42] for me?
0.2 to 1 µM

Can you look up the measured IC50 of CC(c1ccc2c(c1)OCCO2)N1CCN(c2ncc(C(=O)N3CCC(O)CC3)s2)CC1 (racemic) [Example 73] for me?
0.05 to 0.2 µM

Can you look up the measured IC50 of CC(c1ccc2c(c1)OCO2)N1CCN(c2nccc(N)n2)CC1 (racemic) [Example 22] for me?
0.05 to 0.2 µM

###

system-tested: UniProtKB O60502
run-description: Human O-GlcNAcase enzyme inhibition assay (Example B01)
Type: biochemical
condition-summary: OGA enzyme inhibition assay; activity range classes defined in μM; read-out: OGA IC50
recorded-endpoint: IC50

Worked examples, 3 compounds total:
compound: CC(=O)Nc1cnc(N2CCN(C(C)c3ccc4c(c3)OCC4)CC2)nc1 (racemic)
IC50: < 0.05 µM
//
compound: CSc1ccc(N2CCN([C@@H](C)c3ccc4c(c3)OCO4)CC2)nc1
IC50: < 0.05 µM
//
compound: CC(c1ccc2c(c1)OCO2)N1CCN(c2nc(C(=O)NC3CCCCC3)cs2)CC1 (racemic)
IC50: 0.2 to 1 µM

API: the following record is the query input.
Can you look up the measured IC50 of CC(c1ccc2c(c1)OCO2)N1CCN(c2ncc(CO)cn2)CC1 (racemic) for me?
< 0.05 µM

###

Below, each entry is listed with its recorded IC50.
system-tested: His-Tagged hOGA (human O-GlcNAcase) (Homo sapiens (Human))
run-description: Human O-GlcNAcase enzyme inhibition assay (Example B01)
Format: biochemical
condition-summary: OGA IC50 (M), OGA enzyme inhibition assay; activity range classes defined in μM

Worked examples, 4 molecules total:
molecule: CC(c1ccc2c(c1)OCO2)N1CCN(c2ncc(C(=O)N(C)C)s2)CC1 (single isomer, unassigned) [Example 61]
IC50: 5e-08 to 2e-07 M
--
molecule: Cc1csc(N2CCN(C(C)c3ccc4c(c3)OCO4)CC2)n1 (racemic) [Example 144]
IC50: 2e-07 to 1e-06 M
--
molecule: CC(c1ccc2cccnc2c1)N1CCN(c2ncccn2)CC1 (single isomer, unassigned) [Example 95]
IC50: 5e-08 to 2e-07 M
--
molecule: CC(c1ccc2nccnc2c1)N1CCN(c2nc3cnccc3s2)CC1 (racemic) [Example 140]
IC50: 2e-07 to 1e-06 M

Can you look up the measured IC50 of CC(=O)Nc1cnc(N2CCN(C(C)c3ccc4c(c3)OCO4)CC2)nc1 (racemic) [Example 72] for me?
< 5e-08 M

Can you look up the measured IC50 of CC(=O)Nc1cnc(N2CCN(C(C)c3ccc4cccnc4c3)CC2)nc1 (racemic) [Example 120] for me?
5e-08 to 2e-07 M

Can you look up the measured IC50 of CC(c1ccc2c(c1)OCO2)N1CCN(c2ncc(C(=O)N(C)C)s2)CC1 (racemic) [Example 47] for me?
5e-08 to 2e-07 M

Can you look up the measured IC50 of CC(=O)Nc1cnc(N2CCN(C(C)c3ccc4c(c3)OCO4)CC2)nc1 (single isomer, unassigned) [Example 78] for me?
< 5e-08 M

Can you look up the measured IC50 of CC(c1ccc2cccnc2c1)N1CCN(c2ncccn2)CC1 (racemic) [Example 91] for me?
5e-08 to 2e-07 M

###

Below, each entry is listed with its recorded IC50.
system-tested: His-Tagged hOGA (human O-GlcNAcase) (Homo sapiens (Human), UniProt O60502)
run-description: Human O-GlcNAcase enzyme inhibition assay (Example B01)
Type: biochemical
condition-summary: OGA enzyme inhibition assay; activity range classes defined in μM; read-out: OGA IC50

molecule: CCNc1nnc(N2CCN(C(C)c3ccc4c(c3)OCO4)CC2)s1 (racemic)
system-tested: His-Tagged hOGA (human O-GlcNAcase) (Homo sapiens (Human), UniProt O60502)
IC50: 0.05 to 0.2 µM
--
molecule: C[C@@H](c1ccc2c(c1)OCO2)N1CCN(c2ncc(C(C)(C)O)cn2)CC1
system-tested: His-Tagged hOGA (human O-GlcNAcase) (Homo sapiens (Human), UniProt O60502)
IC50: < 0.05 µM
--
molecule: CC(=O)Nc1nnc(N2CCN(C(C)c3ccc4sc(C)nc4c3)CC2)s1 (racemic)
system-tested: His-Tagged hOGA (human O-GlcNAcase) (Homo sapiens (Human), UniProt O60502)
IC50: < 0.05 µM
--
molecule: CNC(=O)c1csc(N2CCN(C(C)c3ccc4c(c3)OCO4)CC2)n1 (racemic)
system-tested: His-Tagged hOGA (human O-GlcNAcase) (Homo sapiens (Human), UniProt O60502)
IC50: 0.05 to 0.2 µM
--
molecule: C[C@@H](c1ccc2c(c1)OCO2)N1CCN(c2ccc(C(F)(F)F)cn2)CC1
system-tested: His-Tagged hOGA (human O-GlcNAcase) (Homo sapiens (Human), UniProt O60502)
IC50: 0.05 to 0.2 µM
--
molecule: CNC(=O)c1cnc(N2CCN([C@@H](C)c3ccc4c(c3)OCO4)CC2)nc1
system-tested: His-Tagged hOGA (human O-GlcNAcase) (Homo sapiens (Human), UniProt O60502)
IC50: < 0.05 µM
--
molecule: CC(=O)Nc1nnc(N2CCN(C(C)c3ccc4c(c3)OCC4)CC2)s1 (racemic)
system-tested: His-Tagged hOGA (human O-GlcNAcase) (Homo sapiens (Human), UniProt O60502)
IC50: < 0.05 µM

Enter reported IC50 observed with His-Tagged hOGA (human O-GlcNAcase) (Homo sapiens (Human), UniProt O60502) for CCOC(=O)c1cnc(N2CCN(C(C)c3ccc4nccnc4c3)CC2)s1 (racemic)
0.2 to 1 µM

###

system-tested: His-Tagged hOGA (human O-GlcNAcase) (Homo sapiens (Human), UniProt O60502)
run-description: Human O-GlcNAcase enzyme inhibition assay (Example B01)
Format: biochemical
pIC50: −log10 of the molar value.
recorded-endpoint: pIC50

Can you look up the measured pIC50 of CC(c1ccc2c(c1)OCO2)N1CCN(c2ccc([N+](=O)[O-])cn2)CC1 (stereo not shown) for me?
6.70 to 7.30

###

system-tested: His-Tagged hOGA (human O-GlcNAcase) (Homo sapiens (Human))
run-description: Human O-GlcNAcase enzyme inhibition assay (Example B01)
Type: biochemical
condition-summary: OGA enzyme inhibition assay; activity range classes defined in μM; read-out: OGA IC50
recorded-endpoint: IC50

Worked examples, 4 compounds total:
compound: C[C@@H](c1ccc2c(c1)OCO2)N1CCN(c2nnc(N)s2)CC1 [Example 132]
IC50: < 0.05 µM

compound: CC(C)C(=O)Nc1nnc(N2CCN(C(C)c3ccc4c(c3)OCO4)CC2)s1 (racemic) [Example 107]
IC50: < 0.05 µM

compound: CC(=O)Nc1cnc(N2CCN(C(C)c3ccc4cc(Cl)cnc4c3)CC2)nc1 (racemic) [Example 125]
IC50: 1 to 10 µM

compound: CC(=O)Nc1nnc(N2CCN(C(C)c3ccc4c(Cl)ccnc4c3)CC2)s1 (racemic) [Example 100]
IC50: 0.2 to 1 µM

Enter reported IC50 observed with His-Tagged hOGA (human O-GlcNAcase) (Homo sapiens (Human)) for Cc1cnn(C2CCN(C(C)c3ccc4c(c3)OCO4)CC2)c1 (racemic) [Example 3]
1 to 10 µM

Enter reported IC50 observed with His-Tagged hOGA (human O-GlcNAcase) (Homo sapiens (Human)) for CC(=O)Nc1cnc(N2CCN(C(C)c3cccc4cccnc34)CC2)nc1 (racemic) [Example 127]
1 to 10 µM

Enter reported IC50 observed with His-Tagged hOGA (human O-GlcNAcase) (Homo sapiens (Human)) for C[C@@H](c1ccc2c(c1)OCO2)N1CCN(c2ncc(C3(O)CCOC3)cn2)CC1 (stereo partly drawn) [Example 189]
< 0.05 µM

Enter reported IC50 observed with His-Tagged hOGA (human O-GlcNAcase) (Homo sapiens (Human)) for CC(=O)Nc1cnc(N2CCN(C(C)c3ccc4nccnc4c3)CC2)nc1 (racemic) [Example 93]
< 0.05 µM

Enter reported IC50 observed with His-Tagged hOGA (human O-GlcNAcase) (Homo sapiens (Human)) for CCOC(=O)c1csc(N2CCN(C(C)c3ccc4c(c3)OCO4)CC2)n1 (racemic) [Example 17]
0.2 to 1 µM

Enter reported IC50 observed with His-Tagged hOGA (human O-GlcNAcase) (Homo sapiens (Human)) for CC(=O)Nc1cnc(N2CCN(C(C)c3ccc4c(Cl)ccnc4c3)CC2)nc1 (racemic) [Example 101]
0.2 to 1 µM

Enter reported IC50 observed with His-Tagged hOGA (human O-GlcNAcase) (Homo sapiens (Human)) for CC(=O)Nc1nnc(N2CCN(C(C)c3ccc4c(c3)OC(F)(F)O4)CC2)s1 (racemic) [Example 117]
0.2 to 1 µM

Enter reported IC50 observed with His-Tagged hOGA (human O-GlcNAcase) (Homo sapiens (Human)) for CC(c1ccc2nccnc2c1)N1CCN(c2ncc(F)cn2)CC1 (racemic) [Example 172]
0.05 to 0.2 µM

Enter reported IC50 observed with His-Tagged hOGA (human O-GlcNAcase) (Homo sapiens (Human)) for CC(c1ccc2c(c1)OCO2)N1CCN(c2cnc(Cl)cn2)CC1 (racemic) [Example 25]
0.05 to 0.2 µM

Enter reported IC50 observed with His-Tagged hOGA (human O-GlcNAcase) (Homo sapiens (Human)) for Cc1ncc(N2CCN(C(C)c3ccc4c(c3)OCO4)CC2)s1 (racemic) [Example 37]
< 0.05 µM

Enter reported IC50 observed with His-Tagged hOGA (human O-GlcNAcase) (Homo sapiens (Human)) for CC(=O)Nc1nnc(N2CCN(C(C)c3ccc4scnc4c3)CC2)s1 (racemic) [Example 114]
< 0.05 µM

Enter reported IC50 observed with His-Tagged hOGA (human O-GlcNAcase) (Homo sapiens (Human)) for CC(C)NC(=O)c1csc(N2CCN(C(C)c3ccc4c(c3)OCO4)CC2)n1 (racemic) [Example 32]
0.2 to 1 µM

Enter reported IC50 observed with His-Tagged hOGA (human O-GlcNAcase) (Homo sapiens (Human)) for CCOC(=O)c1ccc(N2CCN([C@@H](C)c3ccc4c(c3)OCO4)CC2)nc1 [Example 183]
0.05 to 0.2 µM

Enter reported IC50 observed with His-Tagged hOGA (human O-GlcNAcase) (Homo sapiens (Human)) for CC(c1ccc2c(c1)OCO2)N1CCN(c2ncc(CN3CCOCC3)s2)CC1 (racemic) [Example 79]
0.05 to 0.2 µM

Enter reported IC50 observed with His-Tagged hOGA (human O-GlcNAcase) (Homo sapiens (Human)) for CC(c1ccc2c(c1)OCO2)N1CCN(c2nc3ccccc3s2)CC1 (racemic) [Example 130]
0.2 to 1 µM

Enter reported IC50 observed with His-Tagged hOGA (human O-GlcNAcase) (Homo sapiens (Human)) for CC(=O)Nc1nccc(N2CCN(C(C)c3ccc4c(c3)OCO4)CC2)n1 (racemic) [Example 54]
0.05 to 0.2 µM

All figures here come from patent US10336775B2.
